Test: qHTS assay for small molecule disruptors of the mitochondrial membrane potential (AID 720635)
Conditions: HepG2 mitochondrial membrane potential, Mito-MPS dye ratio; series mostly up to 83.2 µM
Inconclusive results are not listed. Activity calls are given as the source filed them. Calls come from the whole dose curve; as a rule, active = well fitted inhibition curve with a large enough effect in the signal ratio in the repeat runs; inconclusive = weak or mixed curves, or effect the other way; inactive = flat fitted curve, though single readings scatter; the % refers to the signal ratio.
Outcome field: choose from Yes (active), No (inactive)

Per the records of this test, what outcome belongs to `O=C(c1ccc(O)c(O)c1)c1ccc(O)cc1O` ?
Yes

State the result this test recorded for `CC(=O)c1ccc(C(C)=O)cc1` .
No

Recorded call for `CC(=O)[C@H]1CC[C@H]2[C@@H]3CCC4=CC(=O)CC[C@]4(C)[C@H]3CC[C@]12C` ?
Yes

Lab log entry: `CCOC(=O)Cn1cccc1-c1nc(-c2ccc(OC)cc2)c(-c2ccc(OC)cc2)s1` — outcome as called in the assay?
No

Could you check what this test reported for `O=C(O)c1ccc2cc(C(=O)O)ccc2c1` ?
No

Please let me know the test result on file for `CCCC(=O)OCCc1ccccc1` .
No

I would be grateful if you could indicate the recorded call for `CCOc1ccc2ccccc2c1C(=O)N[C@@H]1C(=O)N2[C@@H]1SC(C)(C)[C@@H]2C(=O)O` .
No

Fill in: this test's call for Cc1cc(C(C#N)c2ccc(Cl)cc2)c(Cl)cc1NC(=O)c1cc(I)cc(I)c1O (configuration not stated) is ___
Yes

What is the recorded call for this molecule in the test? `Oc1cc(Cl)cc(Cl)c1Cl`
Yes

Hi, sorry to bother you, what did the test record for `CN1CCN(Cc2cc(-c3ccc4[nH]c(=O)oc4c3)co2)[C@@H](c2ccc(F)cc2)C1` ?
Yes

In this assay, the call recorded for `O=C(O)[C@H](O)[C@@H](O)[C@H](O[C@@H]1O[C@H](CO)[C@H](O)[C@H](O)[C@H]1O)[C@H](O)CO` was what?
No

GET /call?item= `CCc1cccc(CC)c1NC(=O)CN(CC(=O)O)CC(=O)O` returns the recorded outcome of this test.
No

For `ClCCl` , what call appears in the results of this test?
No

Tell me the assay call for `COc1cc(C)ccc1O` please.
No

I'd appreciate the recorded outcome for `Cc1ccc(C)cc1` from this test.
No

Hi, sorry to bother you, what did the test record for `O=[N+]([O-])c1ccc(O)cc1C(F)(F)F` ?
Yes

Identify the outcome logged in this assay for the molecule shown: CCC(CC)C(C)CCOC(C)=O (configuration not stated)
No

What did this assay record as the result for `O=C(O)c1cc(-c2ccc(F)cc2F)ccc1O` ?
Yes

What did the test return for `C#C[C@]1(OC(C)=O)CC[C@H]2[C@@H]3CCC4=C/C(=N/O)CC[C@@H]4[C@H]3CC[C@@]21CC` ?
Yes

Called result for `Nc1nc(N)nc(-c2cc(Cl)ccc2Cl)n1`
No

Write down the call the test reported for this molecule. Item: CC(=O)Oc1cc2c(s1)CCN(C(C(=O)C1CC1)c1ccccc1F)C2 (configuration not stated)
No

What did this assay record as the result for CCCCC(CC)CN1CN(CC(CC)CCCC)CC(C)(N)C1 (configuration not stated) ?
No
